Assay: qHTS Multiplex Assay to Identify Dual Action Probes in a Cell Model of Huntington: Aggregate Formation (GFP); further: nearly all actives have a fitted effect of over 60% in size
Conditions: PC12 HttQ103-GFP aggregates, Acumen cytometry, 40 h; series mostly up to 9.22 µM
The campaign covered roughly 220,000 compounds. About 2,400 (1.1%) were called active. About 7% were inconclusive and are not listed. The call rests on the fitted dose curve; in most records, active means well fitted inhibition curve with a large enough effect; inconclusive means small, poorly fitted or top-dose-only effect, or effect the other way; inactive means no such curve, though single readings can be large or run the other way. The list comes from a sample in which actives are over-represented; it also holds close analogues and randomly drawn compounds.
Please state which outcome applies, choosing from active, inactive

compound: CCOC(=O)N1CCN(C(=O)c2cc3c(-c4ccc(Cl)cc4)nn(C)c3s2)CC1
classification: inactive
//
compound: CC(=O)Nc1cccc(OCC(=O)/C=C2\N(C)c3ccccc3C2(C)C)c1
classification: active
//
compound: COc1cccc(NC(=O)c2ccc(S(=O)(=O)N(C)C)cc2)c1
classification: inactive
//
compound: COc1ccc(Cn2c(=O)sc3ccccc32)cc1OC
classification: active
//
compound: Cc1noc(C)c1C(=O)OCC(=O)/C=C1\N(C)c2ccccc2C1(C)C
classification: inactive
//
compound: COc1cccc(-c2nnc(NC(=O)c3ccc(S(=O)(=O)N(CC(C)C)CC(C)C)cc3)o2)c1
classification: active

**Query** Entry `Cn1c(=O)c2c(nc(OCc3cccnc3)n2Cc2ccccc2)n(C)c1=O` : call = ?
**Result** active

**Query** Entry `COCCn1c(CN(Cc2ccccc2)Cc2ccccc2)nc2c1c(=O)n(C)c(=O)n2C` : call = ?
**Result** inactive

**Query** Entry O=C(CC(c1ccccc1)c1cc(Cl)ccc1O)NCCN1CCOCC1 (centres undefined) : call = ?
**Result** inactive

**Query** Entry `CCOC(=O)N1CCN(C(=O)C2CCN(c3ncnc4c3sc3cccc(F)c34)CC2)CC1` : call = ?
**Result** active

**Query** Entry `CCOC(=O)N1CCN(Cc2nc3c(c(=O)n(C)c(=O)n3C)n2Cc2ccccc2)CC1` : call = ?
**Result** inactive

**Query** Entry `Cc1cccc(CSc2nnc(Cn3c(=O)sc4ccccc43)n2C)c1` : call = ?
**Result** inactive

**Query** Entry `CC1=CC(C)(C)NC(=S)N1NC(=O)c1ccccc1Cl` : call = ?
**Result** inactive

**Query** Entry `COCCNC(=O)c1ccccc1-c1nc(-c2ccccc2Cl)no1` : call = ?
**Result** inactive

**Query** Entry `CCn1c(CN2C(=O)CSc3ccccc32)n[nH]c1=S` : call = ?
**Result** inactive

**Query** Entry `Cn1nc(-c2ccc(Cl)cc2)c2cc(C(=O)NCc3ccco3)sc21` : call = ?
**Result** active

**Query** Entry `O=C(O)CSCC(=O)Nc1cccc(C(F)(F)F)c1` : call = ?
**Result** inactive

**Query** Entry `COc1ccc(SCCN2CCN(CC(C)C)CCC2=O)cc1` : call = ?
**Result** inactive

**Query** Entry `CN1/C(=C\C(=O)c2cccnc2Cl)C(C)(C)c2ccccc21` : call = ?
**Result** inactive

---

Test: qHTS Multiplex Assay to Identify Dual Action Probes in a Cell Model of Huntington: Aggregate Formation (GFP); further: nearly all actives have a fitted effect of over 60% in size
Details: PC12 HttQ103-GFP aggregates, Acumen cytometry, 40 h; series mostly up to 9.22 µM
Out of some 220,000 compounds screened, about 2,400 (1.1%) were called active. About 7% were inconclusive and are not listed. Calls follow the shape of the dose curve; as a rule, active = well fitted inhibition curve with a large enough effect; inconclusive = small, poorly fitted or top-dose-only effect, or effect the other way; inactive = no such curve, though single readings can be large or run the other way. Many of the other results were omitted from the sample, so actives are more common in it than they were.
Please state which outcome applies, choosing from 1 (active), 0 (inactive)

structure_smiles: CCC(=O)/C=C1\Sc2ccccc2N1CC
classification: 0

**Query** Entry `O=C(O)CCCCCNc1ncnc2ccc(Br)cc12` : call = ?
**Result** 0

**Query** Entry `CCOC(=O)CSc1nnc(NC(=O)c2cccc(S(=O)(=O)N3CCCC3)c2)s1` : call = ?
**Result** 1

---

Assay: qHTS Multiplex Assay to Identify Dual Action Probes in a Cell Model of Huntington: Aggregate Formation (GFP); further: nearly all actives have a fitted effect of over 60% in size
Details: PC12 HttQ103-GFP aggregates, Acumen cytometry, 40 h; series mostly up to 9.22 µM
The whole screen tested about 220,000 compounds, of which about 2,400 (1.1%) were called active. Not shown: some 7% with an inconclusive outcome. Calls follow the shape of the dose curve; as a rule, active = well fitted inhibition curve with a large enough effect; inconclusive = small, poorly fitted or top-dose-only effect, or effect the other way; inactive = no such curve, though single readings can be large or run the other way. Many of the other results were omitted from the sample, so actives are more common in it than they were.
Please state which outcome applies, choosing from label 1 for active, label 0 for inactive

Take a look at these entries with their results.
compound: COc1cc2c(cc1OC)CC(=O)N(CCCN(C)C[C@H]1Cc3cc(OC)c(OC)cc31)CC2
classification: label 0
--
compound: COC(=O)c1ccccc1NC(=O)CSc1nnnn1C
classification: label 0
--
compound: COC(=O)c1sccc1NC(=O)CC1C(=O)NCCN1C(=O)Nc1ccc(F)cc1F (stereo not drawn)
classification: label 0
--
compound: CCC(=O)Nc1ccc(C(=O)Nc2cccc(OC)c2)cc1
classification: label 0
--
compound: COC(=O)c1sccc1NN1C(=O)c2ccccc2C1=O
classification: label 0

**Query** Entry `CCN(CC)C(=O)c1sc(NC(=O)c2ccco2)c(C#N)c1C` : call = ?
**Result** label 0

**Query** Entry `CC(C)/C=N/NC(=O)c1cc(Br)ccc1O` : call = ?
**Result** label 1

**Query** Entry `CC(CO)(CO)NC(=O)c1ccc(=O)[nH]n1` : call = ?
**Result** label 0

---

Assay: qHTS Multiplex Assay to Identify Dual Action Probes in a Cell Model of Huntington: Aggregate Formation (GFP); further: nearly all actives have a fitted effect of over 60% in size
Conditions: PC12 HttQ103-GFP aggregates, Acumen cytometry, 40 h; series mostly up to 9.22 µM
The campaign covered roughly 220,000 compounds. About 2,400 (1.1%) were called active. Inconclusive results (about 7%) are left out. The call rests on the fitted dose curve; in most records, active means well fitted inhibition curve with a large enough effect; inconclusive means small, poorly fitted or top-dose-only effect, or effect the other way; inactive means no such curve, though single readings can be large or run the other way. For the sample, actives were picked, then their nearest neighbours and some compounds at random.
Please state which outcome applies, choosing from 1 (yes) = active, 0 (no) = inactive

molecule: O=S(=O)(c1ccc(Cl)cc1)N1CCCN(c2ccc(C(F)(F)F)cn2)CC1
classification: 0 (no)
--
molecule: COc1ccc(C2(C#N)CCC(C(=O)O)CC2)cc1OC1CCCC1 (configuration not stated)
classification: 0 (no)
--
molecule: Cc1c(Cl)c([N+](=O)[O-])nn1Cc1ccc(C(=O)N/N=C\c2cc(Cl)ccc2O)o1
classification: 1 (yes)
--
molecule: CC(=O)c1cccc(NC(=O)Nc2ccc(C)cc2)c1
classification: 0 (no)
--
molecule: CCCCSc1nc2ccccc2[nH]1
classification: 0 (no)

**Query** Entry `Cc1[nH]c2ccccc2c1C(=O)COC(=O)C(C)C` : call = ?
**Result** 0 (no)

---

Experiment: qHTS Multiplex Assay to Identify Dual Action Probes in a Cell Model of Huntington: Aggregate Formation (GFP); further: nearly all actives have a fitted effect of over 60% in size
Conditions: PC12 HttQ103-GFP aggregates, Acumen cytometry, 40 h; series mostly up to 9.22 µM
Source text: NIH Chemical Genomics Center [NCGC] NIH Molecular Libraries Probe Production centers Network [MLPCN] Assay Submitter (PI): Wei Zheng […] A stable PC12 cell line containing a gene fusion of Exon 1 of the Huntingtin gene linked to GFP under the control of the inducible ecdysone promoter were used as the cell-based model of Huntington Disease for high throughput screening. […] The cell death were quantified with a measurement of ATP content in the cells. […] 6, Detector, Aggregate quantitation by Acumen Explorer […]
Out of some 220,000 compounds screened, about 2,400 (1.1%) were called active. Another 7% or so got no clear call; they are omitted. The call rests on the fitted dose curve; in most records, active means well fitted inhibition curve with a large enough effect; inconclusive means small, poorly fitted or top-dose-only effect, or effect the other way; inactive means no such curve, though single readings can be large or run the other way. Many of the other results were omitted from the sample, so actives are more common in it than they were.
Please state which outcome applies, choosing from active, inactive

compound: O=C(NC(=O)c1ccccc1N1CCCCC1)Nc1ccc(Br)cc1
classification: inactive
//
compound: NC(=O)c1sc2nc3c(c(-c4ccccc4)c2c1N)CCC3
classification: active
//
compound: Cc1ccc(NS(=O)(=O)c2ccc(N/N=C/c3ccccc3OCC(=O)O)c([N+](=O)[O-])c2)c(C)c1
classification: inactive
//
compound: COCCn1c(C)cc(C(=O)CSc2nc3ccccc3c(=O)n2C(C)COC)c1C (stereo unspecified)
classification: inactive
//
compound: CC(=O)Nc1ccc(NC(=O)c2sc3nc4c(c(-c5ccc(C)cc5)c3c2N)CCC4)cc1
classification: inactive
//
compound: Cc1c(S(=O)(=O)NCc2ccccc2)c(=O)n(C)c(=O)n1C
classification: inactive
//
compound: Cc1nc2ccc(C(=O)O)cc2[nH]1
classification: inactive
//
compound: CCOC(=O)c1c(NC(=O)c2ccc(N3CCOCC3)c([N+](=O)[O-])c2)sc(C)c1C
classification: inactive
//
compound: Cc1cccc(NC(=O)c2sc3nc4c(c(-c5ccco5)c3c2N)CCC4)c1
classification: inactive
//
compound: COc1ccc(-c2nn(C)c(=O)c3ccccc23)cc1NC(=O)COc1ccccc1
classification: inactive

**Query** Entry `O=C(O)c1cccnc1Sc1ncnc2sc3c(c12)CCC3` : call = ?
**Result** inactive

**Query** Entry `Cc1ccc(NC(=O)Cn2nc(C)c3ccccc3c2=O)c(C)c1` : call = ?
**Result** inactive

**Query** Entry `COCCn1c(C)cc(C(=O)CSc2ncnc3sc4c(c23)CCC4)c1C` : call = ?
**Result** active

**Query** Entry `CN(C)S(=O)(=O)c1ccc(NC(=O)COC(=O)Cn2[nH]c(=O)c3ccccc3c2=O)cc1` : call = ?
**Result** inactive

**Query** Entry `CCNc1nc(Oc2ccc(C(=O)OC)cc2)nc(N2CCOCC2)n1` : call = ?
**Result** inactive

**Query** Entry `O=C(Nc1nnc(COc2ccccc2)s1)Nc1ccccc1F` : call = ?
**Result** inactive

Origin of measurements: PubChem BioAssay AID1688
